System: Blood
PROTOCOL: Inhibition of A23187-induced LTB4 production in human whole blood pre-incubated for 15 mins before A23187 stimulation for another 15 mins
Format: functional, tissue-based
RECORDED_METRIC: pIC50
Convention used: pIC50 is expressed as -log10 of the molar concentration.

Query :: // lookup pIC50 for Nc1cnc(-c2ccc(C3CCC3)c(Oc3ncccn3)c2F)cn1
Result :: 7.18
